- Tested on: MCF-7 breast CSCs
- Procedure summary: Inhibition of mammosphere-forming activity of MCF-7 breast CSCs
- Type: cell-based, human
- Assay setup: treated for 5 days in mammosphere media, read-out: IC-50 for blocking CSC propagation (mammosphere-forming activity)
pIC50: −log10 of the molar value.
Parameter measured: pIC50

Using the record for C(=CC[P+](c1ccccc1)(c1ccccc1)c1ccccc1)C[P+](c1ccccc1)(c1ccccc1)c1ccccc1 , state its measured pIC50.
> 6.30
